# SUBJECT OF TEST: T1, IL-2R on human primary T cells (human, UniProt P01589 22-272; P14784 27-551; P31785 23-369)
# T1 sequence (looked up) 1: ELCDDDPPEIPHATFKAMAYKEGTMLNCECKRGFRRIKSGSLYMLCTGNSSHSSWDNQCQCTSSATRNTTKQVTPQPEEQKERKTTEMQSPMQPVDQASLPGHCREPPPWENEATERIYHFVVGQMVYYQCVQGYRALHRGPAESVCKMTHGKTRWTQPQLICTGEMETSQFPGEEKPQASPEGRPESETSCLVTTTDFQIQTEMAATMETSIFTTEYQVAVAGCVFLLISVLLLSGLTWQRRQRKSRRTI
# T1 sequence (looked up) 2: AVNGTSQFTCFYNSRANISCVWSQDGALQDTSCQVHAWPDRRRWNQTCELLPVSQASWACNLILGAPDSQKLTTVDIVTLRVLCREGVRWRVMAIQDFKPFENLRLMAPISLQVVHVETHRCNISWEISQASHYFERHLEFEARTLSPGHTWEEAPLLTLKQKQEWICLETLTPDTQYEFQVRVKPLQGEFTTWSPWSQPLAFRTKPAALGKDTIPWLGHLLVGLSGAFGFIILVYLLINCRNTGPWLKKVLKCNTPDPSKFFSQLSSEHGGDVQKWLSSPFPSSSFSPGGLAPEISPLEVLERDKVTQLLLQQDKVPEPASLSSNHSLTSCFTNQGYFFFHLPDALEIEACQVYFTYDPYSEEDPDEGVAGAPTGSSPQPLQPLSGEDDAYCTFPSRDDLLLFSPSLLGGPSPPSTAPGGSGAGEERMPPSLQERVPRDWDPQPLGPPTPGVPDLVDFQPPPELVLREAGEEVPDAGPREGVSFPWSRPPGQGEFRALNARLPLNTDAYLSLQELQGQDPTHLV
# T1 sequence (looked up) 3: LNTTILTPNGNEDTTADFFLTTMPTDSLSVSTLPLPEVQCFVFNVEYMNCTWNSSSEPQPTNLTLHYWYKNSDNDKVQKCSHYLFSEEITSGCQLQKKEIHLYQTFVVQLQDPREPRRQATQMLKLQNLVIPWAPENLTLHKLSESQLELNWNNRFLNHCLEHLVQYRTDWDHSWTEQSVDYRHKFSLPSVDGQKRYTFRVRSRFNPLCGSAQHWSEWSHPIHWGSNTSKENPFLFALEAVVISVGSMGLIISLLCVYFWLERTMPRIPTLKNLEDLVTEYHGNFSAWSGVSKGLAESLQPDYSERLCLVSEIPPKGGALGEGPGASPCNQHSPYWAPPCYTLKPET
# ASSAY TEXT: cell-based or functional assay
REPORTED METRIC: CD8 EC50 (nM), STAT5 phosphorylation

A = SEQ ID NO 18 (ligand) APTSSSTKKTQLQLEHLLLDLQMILNGINNYKNPKLTRMLTFKFYMPKKATELKHLQCLEEELKPLEEVLNLAQSKNFHFDPRDVVSNINVFVLELKGSETTFMCEYADETATIVEFLNRWITFSQSIISTLT
B = SEQ ID NO 39 (ligand) APTSSSTKKTQLQLEHLLLDLQMILNGINNYKNPKLTRMLTFKFYMPKKATELKHLQCLEEELKPLEEVLRLAQSKNFHLRPRDLISDINVIVLELKGSETTFMCEYADETATIVEFLNRWITFSQSIISTLT
Exam item: Identify the entry with the smaller CD8 EC50 (nM), STAT5 phosphorylation: A or B . Your choice should be expressed through its label.
Marked response: A

1 = SEQ ID NO 31 (ligand) APTSSSTKKTQLQLEHLLLDLQMILNGINNYKNPKLTRMLTFKFYMPKKATELKHLQCLEEELKPLEEALNLAPSKNFHLRPRDLISDINVIVLELKGSETTFMCEYADETATIVEFLNRWITFSQSIISTLT
2 = SEQ ID NO 26 (ligand) APTSSSTKKTQLQLEHLLLDLQMILNGINNHKNPRLTRMLTFKFYMPKKATELKHLQCLEEELKPLEEVLRLAPSKNFHLRPRDLISDINVIVLELKGSETTFMCEYADETATIVEFLNRWITFSQSIISTLT
Exam item: // pick min by CD8 EC50 (nM), STAT5 phosphorylation: 1 , 2 Field: selected label. Fill in the label of the entry you choose.
Marked response: 2
